// reported RF (Relative Fluorescence) of Transfection of HuVec Cells for each item listed
System: HuVec Cells
assay.comment: Transfection of HuVec cells with DOTMA/DOPE/peptide and eGFP plasmid, fluorescent plate reader
Assay type: cell-based
test.conditions: DOTMA/DOPE 1:1 plus peptide with RRRRRRRRRRRR (SEQ ID NO: 109) at n terminus; EF1Alpha eGFP plasmid; 0.01 mL complex; 42 hours
Form rule: numeric answer, no unit written next to it.

The examples below pair each entry with its known result.
216 (YRVRVTPKEKTGPMKE; Peptidic transfection agent) [compound 216]; 14693
369 (TAIPSCPEGTVPLYS; Peptidic transfection agent) [compound 369]; 6536
236 (KNNQKSEPLIGRKKT; Peptidic transfection agent) [compound 236]; 14418

Dear colleague, please send me the reported RF (Relative Fluorescence) of Transfection of HuVec Cells for 360 (GDLGRPGRKGRPGPP; Peptidic transfection agent) [compound 360] when you can.
24042

Using the record for 379 (TAGSCLRKF; Peptidic transfection agent) [compound 379] , state its measured RF (Relative Fluorescence) of Transfection of HuVec Cells.
14573

Provide only the value of recorded RF (Relative Fluorescence) of Transfection of HuVec Cells for 377 (TAGSCLRRFSTM; Peptidic transfection agent) [compound 377]
9326

Give RF (Relative Fluorescence) of Transfection of HuVec Cells for 326 (RLVSYSGVLFFLK; Peptidic transfection agent) [compound 326]
4932

Read off the recorded RF (Relative Fluorescence) of Transfection of HuVec Cells for 381 (TAGSCL; Peptidic transfection agent) [compound 381]
17542
